Values from patent EP4786492A1

Each record here notes measured MFI.
Biological target: DLL3 endogenously expressed on NCI-H82 cells (UniProt Q9NYJ7)
Sequence (Q9NYJ7 27-618): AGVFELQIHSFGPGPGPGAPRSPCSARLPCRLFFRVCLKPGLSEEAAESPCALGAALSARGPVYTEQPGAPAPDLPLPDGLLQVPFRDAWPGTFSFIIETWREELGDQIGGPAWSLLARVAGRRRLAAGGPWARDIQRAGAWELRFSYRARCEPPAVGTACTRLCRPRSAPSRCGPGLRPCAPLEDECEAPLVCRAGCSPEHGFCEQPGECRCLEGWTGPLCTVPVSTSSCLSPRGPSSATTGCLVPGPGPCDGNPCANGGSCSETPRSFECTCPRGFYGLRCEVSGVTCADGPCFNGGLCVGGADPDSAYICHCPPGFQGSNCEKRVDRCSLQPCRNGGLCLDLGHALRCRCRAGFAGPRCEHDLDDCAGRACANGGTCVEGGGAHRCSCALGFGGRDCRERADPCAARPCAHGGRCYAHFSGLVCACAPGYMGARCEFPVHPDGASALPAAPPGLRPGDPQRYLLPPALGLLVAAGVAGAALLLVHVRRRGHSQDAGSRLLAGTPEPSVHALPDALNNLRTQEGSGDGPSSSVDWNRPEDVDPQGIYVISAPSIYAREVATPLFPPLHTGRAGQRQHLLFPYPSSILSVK
Assay: FACS on NCI-H82 cells; antibody 0.032 nM
MEASURED QUANTITY: MFI

1) mab015 scFv-hFc (Fc fusion, part only; not given: linker and human IgG1 Fc, not shown: a dimerising Fc or GST) chain, part: NIVMTQSPKSMSMSVGERVTLSCKASENVGTYVSWFQQKPEQSPKLLIYGASNRYTGVPDRFTGSGSATDFTLTISSVQAEDLADYHCGQFYSFPCTFGGGTKLEIKEVKLEESGGGLVQPGGSMKLSCVASGITFSNFWMNWVRQSPEKGLEWVAQIRLKSDDYATHYAESVKGRFTISRDDSKGSVYLQMNNLRTEDTGIHYCTTGYYFDYWGQGTTLTVSS    218
2) Hab008L1H2a-hFc (scFv, part only; not given: VL-VH linker and human IgG1 Fc, V domains shown, not shown: another chain or arm of the molecule; a dimerising Fc or GST; small tags and cut ends) VL: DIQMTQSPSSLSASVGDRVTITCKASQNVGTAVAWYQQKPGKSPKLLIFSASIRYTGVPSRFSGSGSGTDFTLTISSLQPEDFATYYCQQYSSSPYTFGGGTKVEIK VH: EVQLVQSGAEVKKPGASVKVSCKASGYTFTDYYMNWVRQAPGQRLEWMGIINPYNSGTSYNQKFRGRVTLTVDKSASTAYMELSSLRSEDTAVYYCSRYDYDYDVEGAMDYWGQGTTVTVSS    134
3) Hab015VL4VH1a-hFc (scFv, part only; not given: scFv linker and human IgG1 Fc, V domains shown, not shown: another chain or arm of the molecule; a dimerising Fc or GST; small tags and cut ends) VL: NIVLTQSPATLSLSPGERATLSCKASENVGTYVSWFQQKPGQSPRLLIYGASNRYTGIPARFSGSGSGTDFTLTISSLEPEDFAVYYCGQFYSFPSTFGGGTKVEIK VH: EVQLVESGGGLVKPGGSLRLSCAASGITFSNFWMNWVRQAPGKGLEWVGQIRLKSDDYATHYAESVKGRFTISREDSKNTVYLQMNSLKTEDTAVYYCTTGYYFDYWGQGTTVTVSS    213
